# assayedTarget: MRCKα (Homo sapiens (Human), UniProt Q5VT25)
# Sequence (Q5VT25 whole entry): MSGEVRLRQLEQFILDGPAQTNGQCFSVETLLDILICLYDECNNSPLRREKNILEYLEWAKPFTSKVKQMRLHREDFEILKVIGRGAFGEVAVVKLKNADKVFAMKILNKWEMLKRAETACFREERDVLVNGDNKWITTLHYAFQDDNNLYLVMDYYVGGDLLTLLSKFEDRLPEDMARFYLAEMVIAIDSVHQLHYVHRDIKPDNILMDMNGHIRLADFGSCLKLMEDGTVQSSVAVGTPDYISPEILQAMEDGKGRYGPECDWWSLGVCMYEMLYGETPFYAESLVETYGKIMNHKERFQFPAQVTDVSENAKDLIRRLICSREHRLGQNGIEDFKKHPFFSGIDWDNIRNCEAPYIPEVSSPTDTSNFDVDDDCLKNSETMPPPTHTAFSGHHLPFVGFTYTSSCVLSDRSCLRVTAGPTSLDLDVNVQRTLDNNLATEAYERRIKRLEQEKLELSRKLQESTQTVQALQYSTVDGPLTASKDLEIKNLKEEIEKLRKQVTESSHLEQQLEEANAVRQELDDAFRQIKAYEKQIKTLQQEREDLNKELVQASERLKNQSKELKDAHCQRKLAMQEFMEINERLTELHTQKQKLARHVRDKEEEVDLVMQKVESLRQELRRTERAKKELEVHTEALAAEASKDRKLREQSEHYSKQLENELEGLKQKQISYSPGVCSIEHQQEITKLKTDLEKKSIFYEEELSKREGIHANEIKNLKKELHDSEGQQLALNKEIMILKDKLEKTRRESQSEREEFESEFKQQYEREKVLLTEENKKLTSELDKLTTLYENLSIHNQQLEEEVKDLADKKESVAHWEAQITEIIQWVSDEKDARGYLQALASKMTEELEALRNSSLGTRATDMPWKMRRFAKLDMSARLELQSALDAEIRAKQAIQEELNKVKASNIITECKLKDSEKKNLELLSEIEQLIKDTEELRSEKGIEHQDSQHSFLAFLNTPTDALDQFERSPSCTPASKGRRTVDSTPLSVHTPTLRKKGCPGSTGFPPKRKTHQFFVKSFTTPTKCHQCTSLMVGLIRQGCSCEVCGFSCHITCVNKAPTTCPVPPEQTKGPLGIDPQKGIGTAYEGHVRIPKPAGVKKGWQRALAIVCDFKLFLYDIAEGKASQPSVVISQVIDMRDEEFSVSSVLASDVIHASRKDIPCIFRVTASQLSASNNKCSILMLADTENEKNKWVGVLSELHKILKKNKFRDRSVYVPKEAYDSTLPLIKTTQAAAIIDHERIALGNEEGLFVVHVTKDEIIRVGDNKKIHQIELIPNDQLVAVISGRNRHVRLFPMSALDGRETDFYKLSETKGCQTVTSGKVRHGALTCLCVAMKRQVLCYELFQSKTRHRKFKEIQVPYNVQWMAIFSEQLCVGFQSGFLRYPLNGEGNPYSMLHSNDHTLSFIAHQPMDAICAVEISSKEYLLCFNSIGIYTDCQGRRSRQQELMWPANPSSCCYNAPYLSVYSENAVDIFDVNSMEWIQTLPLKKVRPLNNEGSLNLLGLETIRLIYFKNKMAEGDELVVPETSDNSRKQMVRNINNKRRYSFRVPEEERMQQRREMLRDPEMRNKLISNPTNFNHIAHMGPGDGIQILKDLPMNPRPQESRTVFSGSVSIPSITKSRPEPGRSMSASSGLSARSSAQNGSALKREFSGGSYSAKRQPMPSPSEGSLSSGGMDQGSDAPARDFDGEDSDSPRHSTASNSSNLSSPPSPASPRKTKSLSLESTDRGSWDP
# methodDescription: MRCKα kinase assay (IMAP fluorescence polarization)
# Assay type: biochemical
# conditionSummary: 1 μM ATP; read-out: MRCK-a Average Ki
assayEndpoint: pKi
Note on pKi: it is the negative log10 of concentration, concentration in mol/L.

*Q* Which pKi is reported with MRCKα (Homo sapiens (Human), UniProt Q5VT25) for this entry: `c1cc(-c2c[nH]c3nccc(N4CCCCC4)c23)[nH]n1` ?
*A* 8.04

*Q* Cool, now `c1cncc(-c2c[nH]c3nccc(N4CCCCC4)c23)c1`
*A* 8.05

*Q* Another compound: `CN[C@H]1CCCN(c2ccnc3[nH]cc(-c4cnccn4)c23)C1`
*A* 9.20

*Q* Subsequent entry: c1cnc(-c2c[nH]c3nccc(N4CCCC5(CCCCN5)C4)c23)cn1 (centres unmarked)
*A* 9.88

*Q* Entry to check: `c1ncc(-c2c[nH]c3nccc(N4CCC[C@H](NC5CC5)C4)c23)cn1`
*A* 9.03

Entry source: patent US11447505B1
